test system: Streptococcus pneumoniae; assay: MIC by agar dilution (NCCLS), 411 isolates Buenos Aires 1998-99; type: cell-based; conditions: Streptococcus pneumoniae, Ciprofloxacin-resistant S. pneumoniae, Strain 2; read-out: MIC
quantityKind: MIC

molecule: C[C@H]1COc2c(N3CCN(C)CC3)c(F)cc3c(=O)c(C(=O)O)cn1c23 [Levofloxacin, levofloxacin]
MIC: 1 µg/mL

Here are 3 molecules. What values of MIC were reported for them?
1. CO/N=C1\CN(c2nc3c(cc2F)c(=O)c(C(=O)O)cn3C2CC2)CC1CN (racemic) [Gemifloxacin]
2. N[C@@H]1[C@H]2CN(c3nc4c(cc3F)c(=O)c(C(=O)O)cn4-c3ccc(F)cc3F)C[C@@H]12 [Trovafloxacin, trovafloxacin]
3. CC1COc2c(N3CCN(C)CC3)c(F)cc3c(=O)c(C(=O)O)cn1c23 (stereo not shown) [Ofloxacin, ofloxacin]

["0.06 µg/mL", "0.025 µg/mL", "2 µg/mL"]

These measurements were taken from patent EP1561465A2.
